System: AD38 cells
Experiment: Viability of AD38 cells (Promega CellTiter-Glo)
Assay type: cell-based
Conditions: 10 μM compound, 6 days, CellTiter-Glo luminescence normalized to DMSO control (100%)
Catalogue of molecules with associated AD38 Viability Normalized Result (cmpd/DMSO %) at 10 μM
REPORTED_METRIC: AD38 Viability Normalized Result (cmpd/DMSO %) at 10 μM

MOLECULE	MEASURED
Cc1c(C(=O)NCc2cnc(-c3ccc(C#N)cc3)s2)ccc2c1NC(=O)c1ccccc1S2(=O)=O	96%
Cc1c(C(=O)NCc2cnc(-c3ccc(C(N)=O)cc3)s2)ccc2c1NC(=O)c1ccccc1S2(=O)=O	103%
O=C(NCc1cnc(-c2ccc(O)c(F)c2)s1)c1ccc2c(c1)NC(=O)c1ccccc1S2(=O)=O	99%
Cc1c(C(=O)NCc2cnc(-c3ccc(OCCCN(C)C)cc3)s2)ccc2c1NC(=O)c1ccccc1S2	98%
Cc1ncc(CNC(=O)c2ccc3c(c2)NC(=O)c2ccccc2S3(=O)=O)s1	76%
O=C(O)CNc1ncc(CNC(=O)c2ccc3c(c2)NC(=O)c2ccccc2S3(=O)=O)s1	0%
CC(C)(C)NCCCSc1ccc(-c2ncc(CNC(=O)c3ccc4c(c3)NC(=O)c3ccccc3S4(=O)=O)s2)cc1.O=C(O)C(F)(F)F	85%
CCN(CC)CCCCc1cnn(-c2ncc(CNC(=O)c3ccc4c(c3)NC(=O)c3ccccc3S4(=O)=O)s2)c1	102%
O=C(NCc1cnc(-c2ccc(OCCCOn3nnc4cccnc43)cc2)s1)c1ccc2c(c1)NC(=O)c1ccccc1S2(=O)=O	101%
Cc1cc2c(cc1C(=O)NCc1cnc(C(F)(F)F)s1)NC(=O)c1ccccc1S2(=O)=O	94%
CN(C)CC1(COc2ccc(-c3ncc(CNC(=O)c4ccc5c(c4)NC(=O)c4ccccc4S5(=O)=O)s3)cc2)CCC1	92%
O=C(NCc1cnc(-c2ccc([N+](=O)[O-])cc2)s1)c1ccc2c(c1)NC(=O)c1ccccc1S2(=O)=O	98%
O=C(NCc1cnc(C(F)(F)F)s1)c1ccc2c(c1)NC(=O)c1ccccc1[S+]2[O-] (stereo not drawn)	109%
NC(=O)c1ccc(-c2ncc(CNC(=O)c3ccc4c(c3)NC(=O)c3ccccc3O4)s2)cc1	77%
Cl.NCc1ccccc1-c1ncc(CNC(=O)c2ccc3c(c2)NC(=O)c2ccccc2S3(=O)=O)s1	104%
